Assay: yeast display, Sf9 membrane polyspecificity reagent, FACS + sequencing; frameworks hold sequencing errors
readout.name: polyreactivity (PSR sort gate)

// known answers, use as guide
chain.sequence: QVQLVESGGGLVQAGGSLRLSCAASGRIFPFYVMGWYRQAHGKERELVATINWSGGSTYYADSVKGRFTISRDNAKNTVYLQMNRLKPEDTAVYYCNGAPSDDYDYWGQGTQVTVSS
polyreactivity (PSR sort gate): low polyreactivity

chain.sequence: QVQLVESGGGLVQAGGSLRLSCAASGITFWYYAMGWYRQAPGKERELVAAITGGDSTNYADSVKGRFTISRDNAKNTVYLQMNSLKPEDTAVYYCNAEGSYEGYDDYWGQGTQVTVSS
polyreactivity (PSR sort gate): high polyreactivity

chain.sequence: QDHLVESWGGLIQAGCSLRISCAASGSITVYNAMGWYRQAPWKERELLAAITGGVTTNYADSVKGRFTISRDNAKTTFYLLMNSLKPEDTAVYYCAKSQIPFGLDSPVDYWGQGTQVNVSS
polyreactivity (PSR sort gate): low polyreactivity

chain.sequence: QGQLVESGGGLVQAGGSLRLSCAASGRIVSVYAMGWYRQAPGKEREFVASISWRGGRTYYADSVKGRFTISRDNAKNTVYLQMNSLKPEDTALYYCATGYDYYVRRYYYWGQGTQVSVSS
polyreactivity (PSR sort gate): high polyreactivity

chain.sequence: QVQLLESGGGLVQAGGSLRLICAASGRIIYGYAMGWYRQAPGKERELVAAITATYYADSVKGRFTISRDNAKNTVYLQMKSLKPVDSGVYYCNAYLSPKQPLSTPDPSFEGGYWGQGTQVTVSS
polyreactivity (PSR sort gate): low polyreactivity

chain.sequence: QVQLVESGGGLVQAGGSLRLSCAASGRTFKTYSMGWYRQAPGKERELVASISGSGSSTYYADSVKGRFTISRDNAKNSVYLQMKSRKPEDTAVYYCNAARSQGYEYATYGYWGQGTQVTVSS
polyreactivity (PSR sort gate): low polyreactivity

polyreactivity (PSR sort gate) recorded for this sequence, "QVHLEHSAGGLVQAGGILRLSSPASGSIVVTNAMGWYRQAPGKERELVAAISNSGSSTYYADSVKGRFTISRDNSKNTVYLQMNSLKPEDTAVYYCAADEPTWDWSYPYGYWGQGTQVTVSS" , is high polyreactivity

Value of polyreactivity (PSR sort gate) reported for the sequence "QVQLVESGGRLVQAGGSLRLSCAASGITFYLNAMGWYRQAPGKERELVADITVSGGSTYYADSVKGRFTISRDNAKNTVYLQMNSLKPEDTAVYYCAADLTISYSQEYYYWGQGNQVTVSS" is low polyreactivity

// polyreactivity (PSR sort gate) value for "QVQLVESGGGLVQAGGSLRLSCAASGSIFYRNAMGWYRQAPGKERELVAAISASGGSTYYADSVKGRFTISRDNAKNTVYLQMNSLNPEDTAFYYCAVEYRKSRSYYPYYYWGQGTQVTVSS" : high polyreactivity

The recorded polyreactivity (PSR sort gate) for "QVQLVESGGGLVQAGGSLRLSCAASGSIFYIYAMGWYRQAPGKERELVARISTGGSTHYADSVKGRFTISRDNAKNTVYLQMNSLKPEDTAVYYCDAPYWLWDGEGEYDYWGQGTQVTVSS" is low polyreactivity

Briefly, polyreactivity (PSR sort gate) measured for "QVQLVESGGGLVQAGGSLRLSCAASGFIFGYYAMGWYRQAPGKERELVAGISWGGARTYYADSVKGRFTISRDNAKNTVYLQMNSLKPEDTAVYYCAATHYGHSISYWFDYWGQGTQVTVSS" : high polyreactivity
